- Test target: GTPase KRas (Homo sapiens)
- Test description: Inhibition of KRas in human RKO cells at 2 uM relative to control
- Format: cell-based
Result type: inhibition (%)

Below: 3 compounds and their reported inhibition.
COc1cc(C2c3cc4c(cc3CCN2CCN)OCCO4)cc(OC)c1OC (stereo not given) ... 10.1
COc1cc(C2c3cc4c(cc3CCN2c2ccc(C#N)cc2)OCCO4)cc(OC)c1OC (stereo not given) ... 7.7
COc1cc(C2c3cc4c(cc3CCN2CCO)OCCO4)cc(OC)c1OC (stereo not given) ... 6.3

(1) COc1cc(C2c3cc4c(cc3CCN2c2ccc([N+](=O)[O-])cc2)OCCO4)cc(OC)c1OC (stereo not given)
(2) COc1cc(C2c3cc4c(cc3CCN2CC#N)OCCO4)cc(OC)c1OC (stereo not given)
Exam item: Between item 1 and item 2 , which reported inhibition is smaller? Which one? Tell me its label.
Marked response: 2

###

- Test target: UniProt:P01116
- Test description: Inhibition of KRas in human RKO cells at 0.2 uM relative to control
- Type: cell-based
Result type: inhibition (%)

The cases that follow already have their inhibition on record.
COc1cc(C2c3cc4c(cc3CCN2CC#N)OCCO4)cc(OC)c1OC (stereo not given) ... 0
COc1cc(C2c3cc4c(cc3CCN2CCO)OCCO4)cc(OC)c1OC (stereo not given) ... 0

(1) COc1cc(C2c3cc4c(cc3CCN2c2ccc(C#N)cc2)OCCO4)cc(OC)c1OC (stereo not given)
(2) COc1cc(C2c3cc4c(cc3CCN2c2ccc([N+](=O)[O-])cc2)OCCO4)cc(OC)c1OC (stereo not given)
Exam item: Sort 1 and 2 by inhibition descending and give the first. Your answer should be the label attached to the chosen record.
Marked response: 1

###

- Test target: UniProtKB P01116
- Test description: Inhibition of KRas in human Colon 320 cells at 2 uM relative to control
- Format: cell-based
Result type: inhibition (%)

COc1cc(C2c3cc4c(cc3CCN2c2ccc(C#N)cc2)OCCO4)cc(OC)c1OC (stereo not given) ... 22.5

(I) COc1cc(C2c3cc4c(cc3CCN2CCO)OCCO4)cc(OC)c1OC (stereo not given)
(II) COc1cc(C2c3cc4c(cc3CCN2CCN)OCCO4)cc(OC)c1OC (stereo not given)
(III) COc1cc(C2c3cc4c(cc3CCN2c2ccc([N+](=O)[O-])cc2)OCCO4)cc(OC)c1OC (stereo not given)
(IV) COc1cc(C2c3cc4c(cc3CCN2CC#N)OCCO4)cc(OC)c1OC (stereo not given)
Exam item: List by increasing inhibition. Would you mind listing the labels in the order requested?
Marked response: I, III, IV, II
(I: 0%, III: 4%, IV: 8.2%, II: 20.1%)

###

Listed here: items and their measured pIC50.
- Tested on: L1210
- Test description: Cytotoxicity against mouse L1210 cells after 48 hrs by coulter counter method
- Assay type: functional, cell-based
- Conditions: L1210, 48 h
Here pIC50 is given on a logarithmic scale as minus log10 of the concentration in mol/L.

For orientation, consider the following solved cases.
COc1cc(C2c3cc4c(cc3CCN2CCN(C)C)OCCO4)cc(OC)c1OC (centres undefined) ... 5.43
COc1cc2c(cc1OC)C(c1cc(OC)c(OC)c(OC)c1)N(CC(O)CO)CC2 (centres undefined) ... 4.82

Exam item: Reported pIC50 for COc1cc(C2c3cc4c(cc3CCN2CCO)OCCO4)cc(OC)c1OC (centres undefined) : what is it?
Marked response: 5.59

Exam item: Similarly, COc1cc(C2NCCc3cc4c(cc32)OCCO4)cc(OC)c1OC (centres undefined) ?
Marked response: 4.68

Exam item: Request: COc1cc2c(cc1OC)C(c1cc(OC)c(OC)c(OC)c1)N(CCO)CC2 (centres undefined)
Marked response: 4.63

###

- Test target: GTPase KRas (Homo sapiens) (UniProt P01116)
- Sequence (P01116 whole entry, looked up): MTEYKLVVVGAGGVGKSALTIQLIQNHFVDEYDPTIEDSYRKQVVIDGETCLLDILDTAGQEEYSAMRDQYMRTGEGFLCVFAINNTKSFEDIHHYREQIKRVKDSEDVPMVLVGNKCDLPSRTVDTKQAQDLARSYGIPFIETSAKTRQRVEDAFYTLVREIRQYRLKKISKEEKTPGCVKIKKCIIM
- Test description: Inhibition of KRas in human Colon 320 cells at 20 uM relative to control
- Format: cell-based
Result type: inhibition (%)

COc1cc(C2c3cc4c(cc3CCN2CCO)OCCO4)cc(OC)c1OC (stereo not given) ... 78.2
COc1cc(C2c3cc4c(cc3CCN2c2ccc([N+](=O)[O-])cc2)OCCO4)cc(OC)c1OC (stereo not given) ... 92.5
COc1cc(C2c3cc4c(cc3CCN2c2ccc(C#N)cc2)OCCO4)cc(OC)c1OC (stereo not given) ... 89.9
COc1cc(C2c3cc4c(cc3CCN2CCN)OCCO4)cc(OC)c1OC (stereo not given) ... 85.3
COc1cc(C2c3cc4c(cc3CCN2CC#N)OCCO4)cc(OC)c1OC (stereo not given) ... 74.7

###

- Test target: UniProtKB P01116
- Test description: Inhibition of KRas in human SNU-C1 cells at 20 uM relative to control
- Type: cell-based
Result type: inhibition (%)

COc1cc(C2c3cc4c(cc3CCN2CC#N)OCCO4)cc(OC)c1OC (stereo not given) ... 59.8
COc1cc(C2c3cc4c(cc3CCN2c2ccc(C#N)cc2)OCCO4)cc(OC)c1OC (stereo not given) ... 43.5
COc1cc(C2c3cc4c(cc3CCN2CCN)OCCO4)cc(OC)c1OC (stereo not given) ... 57.1

(P) COc1cc(C2c3cc4c(cc3CCN2c2ccc([N+](=O)[O-])cc2)OCCO4)cc(OC)c1OC (stereo not given)
(Q) COc1cc(C2c3cc4c(cc3CCN2CCO)OCCO4)cc(OC)c1OC (stereo not given)
Exam item: Out of P and Q , name the one with the higher inhibition. Choose, then provide that item's label.
Marked response: P

###

- Test target: GTPase KRas (Homo sapiens) (UniProt P01116)
- Test description: Inhibition of KRas in human HCT cells at 0.2 uM relative to control
- Type: cell-based
Result type: inhibition (%)

COc1cc(C2c3cc4c(cc3CCN2CCN)OCCO4)cc(OC)c1OC (stereo not given) ... 0

(a) COc1cc(C2c3cc4c(cc3CCN2c2ccc([N+](=O)[O-])cc2)OCCO4)cc(OC)c1OC (stereo not given)
(b) COc1cc(C2c3cc4c(cc3CCN2c2ccc(C#N)cc2)OCCO4)cc(OC)c1OC (stereo not given)
(c) COc1cc(C2c3cc4c(cc3CCN2CCO)OCCO4)cc(OC)c1OC (stereo not given)
(d) COc1cc(C2c3cc4c(cc3CCN2CC#N)OCCO4)cc(OC)c1OC (stereo not given)
Exam item: Please list these compounds in decreasing order of inhibition. Please reply with the labels ordered as requested. Many thanks.
Marked response: b, c, d, a
(b: 35.9%, c: 18%, d: 12.1%, a: 0%)

###

- Test target: GTPase KRas (Homo sapiens) (UniProt P01116)
- Test description: Inhibition of KRas in human HCT cells at 2 uM relative to control
- Format: cell-based
Result type: inhibition (%)

COc1cc(C2c3cc4c(cc3CCN2CCO)OCCO4)cc(OC)c1OC (stereo not given) ... 12.1
COc1cc(C2c3cc4c(cc3CCN2CC#N)OCCO4)cc(OC)c1OC (stereo not given) ... 17
COc1cc(C2c3cc4c(cc3CCN2c2ccc([N+](=O)[O-])cc2)OCCO4)cc(OC)c1OC (stereo not given) ... 19.3
COc1cc(C2c3cc4c(cc3CCN2CCN)OCCO4)cc(OC)c1OC (stereo not given) ... 16.2
COc1cc(C2c3cc4c(cc3CCN2c2ccc(C#N)cc2)OCCO4)cc(OC)c1OC (stereo not given) ... 16

###

- Test target: GTPase KRas (Homo sapiens) (UniProt P01116)
- Test description: Inhibition of KRas in human RKO cells at 20 uM relative to control
- Format: cell-based
Result type: inhibition (%)

COc1cc(C2c3cc4c(cc3CCN2CCO)OCCO4)cc(OC)c1OC (stereo not given) ... 76.7
COc1cc(C2c3cc4c(cc3CCN2CC#N)OCCO4)cc(OC)c1OC (stereo not given) ... 79.2
COc1cc(C2c3cc4c(cc3CCN2c2ccc(C#N)cc2)OCCO4)cc(OC)c1OC (stereo not given) ... 66.5
COc1cc(C2c3cc4c(cc3CCN2c2ccc([N+](=O)[O-])cc2)OCCO4)cc(OC)c1OC (stereo not given) ... 70.5
COc1cc(C2c3cc4c(cc3CCN2CCN)OCCO4)cc(OC)c1OC (stereo not given) ... 92.7

###

- Test target: UniProt:P01116
- Test description: Inhibition of KRas in human HCT cells at 20 uM relative to control
- Type: cell-based
Result type: inhibition (%)

COc1cc(C2c3cc4c(cc3CCN2c2ccc([N+](=O)[O-])cc2)OCCO4)cc(OC)c1OC (stereo not given) ... 55.9
COc1cc(C2c3cc4c(cc3CCN2CC#N)OCCO4)cc(OC)c1OC (stereo not given) ... 49.1
COc1cc(C2c3cc4c(cc3CCN2CCN)OCCO4)cc(OC)c1OC (stereo not given) ... 56.9
COc1cc(C2c3cc4c(cc3CCN2CCO)OCCO4)cc(OC)c1OC (stereo not given) ... 46.5
COc1cc(C2c3cc4c(cc3CCN2c2ccc(C#N)cc2)OCCO4)cc(OC)c1OC (stereo not given) ... 45.2
